# credit: PubChem BioAssay (NCI)

Overview of reported growth across a group of compounds:
system: LOX IMVI melanoma; test: NCI-60 one-dose screen, 48 h (100 = growth as untreated, 0 = no growth, -100 = all killed); conditions: 10 µM unless noted
Compounds without any hit were thinned out: in the full panel of roughly 83,000, 20% have a hit.
Numbers only; they are read as %.

1. COc1ccc(N/N=C/c2cn(-c3ccc(C(=O)O)cc3)nc2-c2cc3ccccc3oc2=O)cc1	25.7
2. CN1CCN(c2ccc(NC3=CC(=O)c4ncncc4C3=O)cc2)CC1	-63.8
3. O=C(Nc1cc(Cl)cc(Cl)c1)Oc1c(Cl)c(Cl)c(Cl)c(Cl)c1Cl	72.5
4. Cc1cc(O)c(=O)cc2c1C[C@H]1CC(C)(C)/C=C/C[C@]3(C)Oc4cc(=O)c(O)cc(C)c4C[C@H]3C[C@H](O)[C@@]1(C)O2	6.33
5. COc1cccc(CNc2c3ccccc3nc3ccccc23)c1OC	13

The recorded growth for C=C1C(=O)O[C@H]2[C@H]1CC/C(COC(=O)NCc1ccc(Cn3c(=O)sn(-c4ccccc4)c3=O)cc1)=C\CC[C@@]1(C)O[C@@H]21 is 6.38

The recorded growth for COCCOC(C)C(/C=N/NC(N)=S)=N/NC(N)=S (centres undefined) is 51.1

The recorded growth for O=c1oc2c(cnc3ccccc32)cc1-c1cccc(Cl)c1 is 102

====

tested on: PC-3 prostate; assay: NCI-60 one-dose screen, 48 h; settings: 10 µM unless noted
This is part of a sample that, as a whole, favours compounds with a hit. Of some 83,000 tested, about 20% had one in any assay. Calls of active or inactive are those of the source. Rule for the calls: active = growth percent below 10; inactive = the rest.
Hello, when you answer, please use one of the following outcomes: 1 (yes) = active, 0 (no) = inactive

Here's what some known entries look like.
1. N#Cc1c(-c2ccccc2)nc2c(c(-c3ccc(Cl)cc3)nn2-c2ccccc2)c1-c1ccc([N+](=O)[O-])cc1	0 (no)
2. Nc1ccc(Br)cc1C(F)(F)F	0 (no)
3. CCN1C2CCC1/C(=C\c1ccccc1)C(=O)/C2=C/c1ccccc1	0 (no)
4. c1cc(OCCN2CCCCC2)ccc1CNc1ccc2nc(CCC3CCCCC3)[nH]c2c1	0 (no)
5. O=C(NCCN1CCOCC1)OCc1ccc2c(Cl)cc(Cl)c(O)c2n1	0 (no)

For Cc1oc(-c2ccc(Cl)cc2)nc1C1=NN(C(=O)c2ccncc2)C(c2ccccc2)C1 (stereo not given) , what call appears in the results of this test?
0 (no)

For Cc1ccc(-c2nc(SCC(=O)N3CCN(c4cc5c(cc4F)c(=O)c(C(=O)O)cn5C4CC4)CC3)nc(Cl)c2C#N)cc1 , what call appears in the results of this test?
0 (no)

For COC(=O)c1c2c(c[n+]([O-])c1C)C(=O)C=C(NCc1ccccc1)C2=O , what call appears in the results of this test?
1 (yes)

====

Overview of reported growth across a group of compounds:
system: SK-MEL-28 melanoma; test: NCI-60 one-dose screen, 48 h (100 = growth as untreated, 0 = no growth, -100 = all killed); conditions: 10 µM unless noted
Compounds without any hit were thinned out: in the full panel of roughly 83,000, 20% have a hit.
Numbers only; they are read as %.

Solved entries:
1) O=C1NC(=O)C(c2coc3cc(Br)ccc23)=C1c1c[nH]c2ccccc12	71.5
2) C=CN(C(=O)N1CCN(c2cc3c(cc2F)c(=O)c(C(=O)O)cn3C2CC2)CC1)c1nc(-c2ccccc2)cs1	101
3) Cc1[nH]n(-c2cccc(Cl)c2)c(=O)c1/C=C1\C=c2ccccc2=CC1=O	51.1
4) CC(O)Cc1c[nH]c(=O)[nH]c1=O (stereo unspecified)	122
5) CNC(=O)Nc1ccc(-c2ccc3ncnc(Nc4cccc(Cl)c4)c3c2)cc1	58.9

Proceed to the following item.
The recorded growth for CCCN(CCSSCCNc1nc(N(C)O)nc(N(C)O)n1)c1nc(N(C)O)nc(N(C)O)n1 is 67.1

====

system: EKVX NSCLC; assay: NCI-60 one-dose screen, 48 h; conditions: 10 µM unless noted
About 83,000 compounds went through this panel and 20% of them were active in at least one assay; those are over-represented in the sample as a whole. The source made the active and inactive calls. The calls were made as follows: active = growth percent below 10; inactive = the rest.
Hello, when you answer, please use one of the following outcomes: active, inactive

Here's what some known entries look like.
1) CSc1nc2ccc(C)cc2cc1/C=C1/C=C(c2ccccc2)NC1=O	inactive
2) O=C(NCCNC(c1ccccc1)C(NCCNC(=O)c1ccccc1)c1ccccc1)c1ccccc1 (stereo not given)	inactive
3) COc1ccc(C/C(C)=C(\c2ccc(Cl)cc2)c2ccc(OCCN3CCCC3)cc2)cc1	inactive
4) Nc1cc(-c2ccc(Cl)cc2)nn1-c1nnc(/C=C/c2ccco2)c(=O)[nH]1	inactive
5) O=C(Oc1ccc2c(c1)sc1nc(-c3ccccc3)[nH]c(=O)c12)C(F)(F)F	inactive

For CN(C)/C(N)=N/N=C(\c1ccccc1)c1ccccn1 , what call appears in the results of this test?
inactive

For CCOC(=O)c1[nH]cc2c1CCc1sc(Nc3ccccn3)nc1-2 , what call appears in the results of this test?
inactive

For COC(=O)c1ccc2c(c1)c1c(C)c3cnccc3c(C)c1n2C , what call appears in the results of this test?
active

For Cc1cc(=O)oc2cc(Oc3nc(Br)cn4c(Br)cnc34)ccc12 , what call appears in the results of this test?
inactive

For C=C1C(=O)O[C@H]2[C@H]1CC/C(COC(=O)NCc1ccc(Cn3c(=O)sn(-c4ccc(I)cc4)c3=O)cc1)=C\CC[C@@]1(C)O[C@@H]21 , what call appears in the results of this test?
inactive

For CCOC(=O)/C=C1\S/C(=N\Nc2cc(=O)[nH]c3ccc(Br)cc23)N(c2ccccc2)C1=O , what call appears in the results of this test?
inactive

For c1ccc(-c2ccc3c(c2)C2(CCNCC2)CN3)cc1 , what call appears in the results of this test?
inactive

For Cc1cc(=O)n(C(=S)Nc2ccc(Cl)cc2)c2cc(O)ccc12 , what call appears in the results of this test?
inactive

For Cc1nc([P+](c2ccccc2)(c2ccccc2)c2ccccc2)c(N2CCCCC2)o1 , what call appears in the results of this test?
inactive

For C#COc1cccc(Nc2ncnc3cc(NC(=O)[C@H](C)Cl)ccc23)c1 , what call appears in the results of this test?
inactive

====

system: SNB-19 CNS; assay: NCI-60 one-dose screen, 48 h (100 = growth as untreated, 0 = no growth, -100 = all killed); details: 10 µM unless noted
About 83,000 compounds went through this panel and 20% of them were active in at least one assay; those are over-represented in the sample as a whole.
Overview of reported growth across a group of compounds:
Numbers only; they are read as %.

1) COc1ccc2c(c1)CC[C@@H]1[C@@H]2CC[C@]2(C)C3C(=CC(COC(C)=O)C4C(=O)N(c5ccc(Cl)cc5)C(=O)C43)C[C@@H]12 (stereo partly drawn)	110

The recorded growth for O=c1oc2c(cnc3ccccc32)cc1-c1cccc(Cl)c1 is 98.5

The recorded growth for O=C1Nc2ccccc2/C1=N/N1C(=O)CN(CCCl)C1=O is 97.1

====

Overview of reported growth across a group of compounds:
test system: NCI-H23 lung; assay: NCI-60 one-dose screen, 48 h (100 = growth as untreated, 0 = no growth, -100 = all killed); conditions: 10 µM unless noted
Compounds without any hit were thinned out: in the full panel of roughly 83,000, 20% have a hit. Active and inactive are the calls of the source. The calls were made as follows: active = growth percent below 10; inactive = the rest.

Solved entries:
1. COc1ccc(N=C2NN=C(c3c[nH]c4ccccc34)CS2)cc1OC	67.7% (inactive)
2. CC/C(=C(\c1ccc(Cl)cc1)c1ccc(OCCN2CCCCC2)cc1)c1ccc(O)cc1	47.6% (inactive)
3. COc1ccc(/C=N/NC(=O)Cn2c(-c3ccc(S(C)(=O)=O)cc3)nc3ccccc32)cc1	95.5% (inactive)

The recorded growth for Nc1nc(N)c2c(n1)NC(c1cccc(Nc3ccnc4cc(C(F)(F)F)ccc34)c1)CC(c1ccc3c(c1)OCO3)=N2 (centres undefined) is 82.4% (inactive)

The recorded growth for Cc1cc(O)c(=O)cc2c1C[C@H]1CC(C)(C)/C=C/C[C@]3(C)Oc4cc(=O)c(O)cc(C)c4C[C@H]3C[C@H](O)[C@@]1(C)O2 is -16.7% (active)

The recorded growth for O=C(Nc1nc(Cl)nc(Nc2ccc(N3CCOCC3=O)cc2)n1)c1ccc(Cl)s1 is 88.1% (inactive)

The recorded growth for CC1(C)CC[C@]23CC[C@]4(C)[C@H](CC[C@@H]5[C@@]6(C)C/C(=C/O)C(=O)C(C)(C)[C@@H]6CC[C@]54C)[C@H]2[C@H]1OC3 is 99.1% (inactive)

The recorded growth for CCCCC#Cc1c(I)n(C2OC(CO[Si](C)(C)C(C)(C)C)C3OC(C)(C)OC32)c(=O)n(C(=O)c2ccccc2)c1=O (centres undefined) is 51.9% (inactive)

The recorded growth for Cc1ccc(-c2csc(NC(=O)CSc3nc(N)cc(N)n3)n2)cc1 is 42.7% (inactive)

The recorded growth for Cc1cc(N2CCN(CC(=O)Nc3ccc4c(ccn4Cc4ccccc4)c3)CC2)nc(N2CCOCC2)n1 is 83.8% (inactive)

The recorded growth for Cn1c(C#N)ccc1-c1ccc(F)c(NC(=O)c2ccc(F)cc2)c1 is 80.6% (inactive)
